# measurement.target: T1, human vascular endothelial growth factor receptor-2 Fc chimera (KDR-Fc) (human, UniProt P35968 20-764)
# T1 construct: range 1-764; also called human VEGFR-2; not shown: human IgG1 Fc
# T1 sequence (P35968 20-764 limits assumed, change not shown, form in doubt): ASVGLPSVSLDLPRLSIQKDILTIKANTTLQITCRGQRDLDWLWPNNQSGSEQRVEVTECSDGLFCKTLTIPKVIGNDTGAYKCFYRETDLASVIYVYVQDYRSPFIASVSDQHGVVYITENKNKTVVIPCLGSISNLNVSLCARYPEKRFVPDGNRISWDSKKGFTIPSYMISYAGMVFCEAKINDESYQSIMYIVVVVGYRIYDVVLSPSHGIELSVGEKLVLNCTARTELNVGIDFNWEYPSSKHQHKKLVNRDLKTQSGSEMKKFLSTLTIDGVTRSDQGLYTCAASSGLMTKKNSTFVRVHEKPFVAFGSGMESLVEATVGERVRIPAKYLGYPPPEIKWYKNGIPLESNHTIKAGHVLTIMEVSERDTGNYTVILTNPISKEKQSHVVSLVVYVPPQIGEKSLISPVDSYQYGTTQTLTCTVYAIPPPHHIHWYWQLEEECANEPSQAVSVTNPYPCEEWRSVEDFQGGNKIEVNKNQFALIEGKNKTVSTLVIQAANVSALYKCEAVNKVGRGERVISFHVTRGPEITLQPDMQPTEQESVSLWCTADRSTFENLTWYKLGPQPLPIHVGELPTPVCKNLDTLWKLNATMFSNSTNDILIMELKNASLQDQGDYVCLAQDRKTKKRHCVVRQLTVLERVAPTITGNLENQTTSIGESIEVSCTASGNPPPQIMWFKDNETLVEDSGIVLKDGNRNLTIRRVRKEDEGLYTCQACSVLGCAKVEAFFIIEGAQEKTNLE
# assay.overview: radioactive equilibrium binding, 1 nM KDR-Fc, % of input
attribute.measured: Binding to 1 nM KDR, % (%)

binder | Binding to 1 nM KDR, % (%)
2′Del F5 PR4 (designed binder) EVVAATPTSLLISWRHPHFPTRYYRITYGETGGNSPVQEFTVPLQPPTATISGLKPGVDYTITVYAVTLVHNDRELLTPISINYRT | 22
2′Del F7 PR4 (designed binder) EVVAATPTSLLISWRHPHFPTRYYRITYGETGGNSPVQEFTVPLQPPTATISGLKPGVDYTITVYAVTLGLRDRELFVPISINYRT | 38
2′C6-PR4 (designed binder) VSDVPRDLEVVAATPTSLLISWRHPHFPTRYYRITYGETGGNSPVQEFTVPLQPPTATISGLKPGVDYTITVYAVTMGFMAHELMVPISINYRT | 16
3′E9 PR4 (designed binder) EVVAATPTSLLISWRHPHFPTRYYRITYGETGGNSPVQEFTVPLQPPTATISGLKPGVDYTITVYAVTVEQDGHVLYIPISINYRT | 44
1′DelD5 PR4 (designed binder) EVVAATPTSLLISWRHPHFPTRYYRITYGETGGNSPVQEFTVPLQPPTATISGLKPGVDYTITVYAVTVGQNHHELFTPISINYRT | 17
3D12 PR3 (designed binder) EVVAATPTSLLISWRHPHFPTRYYRITYGETGGNSPVQEFTVPLQPPTATISGLKPGVDYTITVYAVTLGQNDRQLLVPISINYRT | 24

A: 4B11 PR3 (designed binder) EVVAATPTSLLISWRHPHFPTRYYRITYGETGGNSPVQEFTVPLQPPTATISGLKPGVDYTITVYAVTVGQNNHELITPISINYRT
B: 4′C5 PR4 (designed binder) EVVAATPTSLLISWRHPHFPTRYYRITYGETGGNSPVQEFTVPLQPPTATISGLKPGVDYTITVYAVTLGLNDHELITPISINYRT
C: 2′Del E6 PR4 (designed binder) EVVAATPTSLLISWRHPHFPTRYYRITYGETGGNSPVQEFTVPLQPPTATISGLKPGVDYTITVYAVTMGKNGHELLTPISINYRT
Q: List by increasing Binding to 1 nM KDR, %. Write the labels out in the order the request specifies.
Ans: A, B, C
(A: 15%, B: 27%, C: 43%)

# credit: patent US20120283184A1
